- EXPERIMENTAL_TARGET: human recombinant P2X7 receptors (Homo sapiens, UniProt Q99572)
- Construct: expressed in transfected cells
- Sequence (Q99572 whole entry): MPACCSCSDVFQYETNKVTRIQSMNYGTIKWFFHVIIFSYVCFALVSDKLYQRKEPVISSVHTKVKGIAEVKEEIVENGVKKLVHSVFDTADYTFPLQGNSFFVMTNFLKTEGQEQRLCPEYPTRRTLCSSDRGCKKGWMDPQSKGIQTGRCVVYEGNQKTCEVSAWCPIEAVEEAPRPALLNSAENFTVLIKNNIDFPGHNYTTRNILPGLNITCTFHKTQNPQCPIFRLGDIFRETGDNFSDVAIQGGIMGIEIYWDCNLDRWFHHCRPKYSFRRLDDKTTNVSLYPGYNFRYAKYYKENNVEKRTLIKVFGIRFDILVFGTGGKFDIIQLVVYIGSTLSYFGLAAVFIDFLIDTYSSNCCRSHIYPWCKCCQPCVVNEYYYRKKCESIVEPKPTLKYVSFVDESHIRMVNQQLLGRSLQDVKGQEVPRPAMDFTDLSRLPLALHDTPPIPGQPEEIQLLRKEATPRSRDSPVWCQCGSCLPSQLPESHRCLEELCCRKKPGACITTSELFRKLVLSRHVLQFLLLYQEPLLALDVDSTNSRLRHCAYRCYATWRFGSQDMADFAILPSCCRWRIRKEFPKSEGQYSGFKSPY
- ASSAY_METHOD_TEXT: Ethidium Accumulation Assay 1 (HEK293 cells, ATP-induced ethidium uptake)
- Format: cell-based
- TEST_CONDITIONS: HEK293 cells expressing human P2X7; 1 mM ATP; sometimes mean of more than one measurement; read-out: Assay 1 (antagonist pIC50 for blocking ATP responses) (converted)
VALUE_KIND: IC50

stdin: Give the measured IC50 of `O=C(c1ccccc1C(F)(F)F)N1CCn2c(nnc2-c2ccccn2)C1` .
stdout: < 100 nM

stdin: Record: `O=C(c1cccc(C(F)(F)F)c1Cl)N1CCn2c(nnc2-c2ccc[nH]2)C1`
stdout: < 10 nM

###

- EXPERIMENTAL_TARGET: human recombinant P2X7 receptors (Homo sapiens)
- Construct: expressed in transfected cells
- ASSAY_METHOD_TEXT: Ethidium Accumulation Assay 2 (HEK293 cells, ATP-induced ethidium uptake)
- Type: cell-based
- TEST_CONDITIONS: HEK293 cells expressing human P2X7; sometimes mean of more than one measurement; read-out: Assay 2 (antagonist pIC50 for blocking ATP responses) (converted)
VALUE_KIND: IC50

Study these solved cases before continuing.
O=C(c1ccc(Cl)c(F)c1Cl)N1CCn2c(nnc2-c2csnn2)C1 [Example 189] = < 100 nM
COc1ccnc(-c2nnc3n2CCN(C(=O)c2ccc(Cl)c(F)c2Cl)C3)c1 [Example 174] = < 10 nM
Cc1scnc1-c1nnc2n1CCN(C(=O)c1ccc(Cl)cc1Cl)C2 [Example 206] = < 100 nM
Cc1cnc(-c2nnc3n2CCN(C(=O)c2ccc(Cl)c(F)c2Cl)C3)s1 [Example 188] = < 100 nM

Moving on to the next compound.
stdin: Fill blank: measured IC50 of the compound O=C(c1ccc(Cl)c(F)c1Cl)N1CCn2c(nnc2-c2ccc(F)cc2O)C1 [Example 150] is ____.
stdout: < 100 nM

###

- EXPERIMENTAL_TARGET: human recombinant P2X7 receptors (Homo sapiens)
- Construct: expressed in transfected cells
- ASSAY_METHOD_TEXT: Ethidium Accumulation Assay 1 (HEK293 cells, ATP-induced ethidium uptake)
- Assay type: cell-based
- TEST_CONDITIONS: HEK293 cells expressing human P2X7; 1 mM ATP; sometimes mean of more than one measurement; read-out: Assay 1 (antagonist pIC50 for blocking ATP responses) (converted)
Recorded IC50 for the following molecules

Recorded results for 5 molecules are shown here.
COc1ccccc1-c1nnc2n1CCN(C(=O)c1ccc(F)cc1Cl)C2 [Example 127] = < 501 nM
O=C(c1ccc(F)cc1Cl)N1CCn2c(nnc2-c2cccc(F)c2F)C1 [Example 131] = < 100 nM
Cc1c(C(=O)N2CCn3c(nnc3-c3ncns3)C2)ccc(F)c1F [Example 202] = < 100 nM
Cn1nccc1-c1nnc2n1CCN(C(=O)c1cccc(Cl)c1Cl)C2 [Example 81] = < 100 nM
O=C(c1cccc(C(F)(F)F)c1Cl)N1CCn2c(nnc2-c2ccccc2O)C1 [Example 138] = < 10 nM

stdin: Which IC50 is listed for Cc1ccc(-c2nnc3n2CCN(C(=O)c2cccc(C(F)(F)F)c2Cl)C3)nc1 [Example 51] ?
stdout: < 100 nM

stdin: Thanks! And Cn1ccc(-c2nnc3n2CCN(C(=O)c2cccc(C(F)(F)F)c2Cl)C3)n1 [Example 27] ?
stdout: < 10 nM

stdin: Next entry: Cn1nccc1-c1nnc2n1CCN(C(=O)c1cccc(C(F)(F)F)c1Cl)C2 [Example 68]
stdout: < 100 nM

stdin: Now this one: O=C(c1ccccc1Cl)N1CCn2c(nnc2-c2ccccn2)C1 [Example 75]
stdout: < 100 nM

stdin: Repeat with O=C(c1ccc(F)cc1Cl)N1CCn2c(nnc2-c2cnccn2)C1 [Example 85]
stdout: < 10 nM

stdin: # repeat for O=C(c1ccc(F)cc1Cl)N1CCn2c(nnc2-c2ncccc2F)C1 [Example 31]
stdout: < 10 nM

stdin: Item: O=C(c1cccc(C(F)(F)F)c1Cl)N1CCn2c(nnc2-c2ncc(F)cc2F)C1 [Example 83]
stdout: < 10 nM

stdin: Follow-up entry: COCCc1nnc2n1CCN(C(=O)c1cccc(C(F)(F)F)c1Cl)C2 [Example 137]
stdout: < 100 nM

stdin: Here is the next molecule: Cc1cc(-c2nnc3n2CCN(C(=O)c2ccc(F)cc2Cl)C3)no1 [Example 71]
stdout: < 501 nM

stdin: And O=C(c1ccccc1Cl)N1CCn2c(nnc2-c2ccc(F)cn2)C1 [Example 118] ?
stdout: < 100 nM

stdin: Same question for O=C(c1ccc(F)cc1F)N1CCn2c(nnc2-c2ccccn2)C1 [Example 78] please.
stdout: < 100 nM

stdin: Please answer likewise for COc1nnc2n1CCN(C(=O)c1cccc(C(F)(F)F)c1Cl)C2 [Example 17]
stdout: < 100 nM

stdin: And then O=C(c1ccc(F)cc1C(F)(F)F)N1CCn2c(nnc2-c2ccccn2)C1 [Example 94] , what is it?
stdout: < 100 nM
